These entries and their values trace back to patent US20160152728A1.

target: T1, EGFRvIII expressed on cells (CHO^EGFRvIII, F98^EGFRvIII) (UniProt P00533 25-1210); experiment: flow cytometry on F98^EGFRvIII cells; scFv detected with anti-His followed by FITC-conj. goat anti-mouse IgG, mean fluorescence intensity
T1 construct: whole, on cells; the vIII deletion must be applied; also called deletion mutant EGFRvIII
Provide the reported EC50 (read off the curve) of each item.

Find the measured EC50 (read off the curve) of scFv 477 (scFv, V domains shown, One-chain scFv, His-tagged) VH: EVQLVQSGAEVKKPGESLKISCKGSGYSFSSYWIGWVRQMPGKGLEWMGIIYPGDSDTRYSPSFQGQVTISADKSISTAYLQWSSLKASDTAMYYCARLGSSWTNDAFDIWGQGTLVTVSS VL: SYELTQPPSVSVSPGQTARITCSGDYLPKQYAYWYQQKPGQAPVLVIYKDTERPSGIPERFSGSSSGTTVTLTISGVQAEDEADYYCQSADASGTYYVFGGGTKLTVL and report it. ~2 nM

Please give the documented EC50 (read off the curve) of scFv 478 (scFv, V domains shown, One-chain scFv, His-tagged) VH: EVQLVQSGAEVKKPGESLKISCKGSGYSFNSYWIGWVRQMPGKGLEWMGIIYPGDEDTRYSPSFQGQVTISADKSISTAYLQWSSLKASDTAMYYCARLGSSWTNDAFDIWGQGTLVTVSS VL: SYELTQPPSVSVSPGQTARITCSGDALPKQYAYWYQQKPGQAPVLVIYKDTERPSGIPERFSGSSSGTTVTLTISGVQAEDEADYYCQSVDPSGTYVVFGGGTKLTVL ~2 nM

Entry Li3G30 scFv (parental) (scFv, V domains shown, One-chain scFv, His-tagged; also called parental scFv; starting clone Li3G30) VH: EVQLVQSGAEVKKPGESLKISCKGSGYSFTSYWIGWVRQMPGKGLEWMGIIYPGDSDTRYSPSFQGQVTISADKSISTAYLQWSSLKASDTAMYYCARLGSSWTNDAFDIWGQGTMVTVSS VL: SYELTQPPSVSVSPGQTARITCSGDALPKQYAYWYQQKPGQAPVLVIYKDSERPSGIPERFSGSSSGTTVTLTISGVQAEDEADYYCQSADSSGTPLIVFGTGTKLTVL needs its EC50 (read off the curve) filled in; supply it. ~6 nM

Let me know recorded EC50 (read off the curve) for scFv 472 (scFv, V domains shown, One-chain scFv, His-tagged) VH: EVQLVQSGAEVKKPGESLKISCKGSGYSFGYYWIGWVRQMPGKGLEWMGIIYPGDSHTRYSPSFQGQVTISADKSISTAYLQWSSLKASDTAMYYCARLGSSWTNDAFDIWGQGTLVTVSS VL: SYELTQPPSVSVSPGQTARITCSGDALPKQYAYWYQQKPGQAPVLVIYKDTERPSGIPERFSGSSSGTTVTLTISGVQAEDEADYYCQSVDSSGTQVVFGGGTKLTVL , thanks. ~1 nM

Hello, please tell me recorded EC50 (read off the curve) for this one: scFv 470 (scFv, V domains shown, One-chain scFv, His-tagged) VH: EVQLVQSGAEVKKPGESLKISCKGSGYSFNSYWIGWVRQMPGKGLEWMGIIYPGDSDTRYSPSFQGQVTISADKSISTAYLQWSSLKASDTAMYYCARLGSSWTNDAFDIWGQGTLVTVSS VL: SYELTQPPSVSVSPGQTARITCSGDALDKQYAYWYQQKPGQAPVLVIYKDSERPSGIPERFSGSSSGTTVTLTISGVQAEDEADYYCQSVDSSETYVVFGGGTKLTVL ~2 nM

Answer with reported EC50 (read off the curve) of scFv 469 (scFv, V domains shown, One-chain scFv, His-tagged) VH: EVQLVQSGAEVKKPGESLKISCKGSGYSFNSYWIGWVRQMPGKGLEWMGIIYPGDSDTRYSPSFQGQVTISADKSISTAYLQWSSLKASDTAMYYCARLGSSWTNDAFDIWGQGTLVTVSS VL: SYELTQPPSVSVSPGQTARITCSGDTLPKQYAYWYQQKPGQAPVLVIYKDSERPSGIPERFSGSSSGTTVTLTISGVQAEDEADYYCQSVDVSGTYVVFGGGTKLTVL 2 nM

Provide one value: measured EC50 (read off the curve) of scFv 475 (scFv, V domains shown, One-chain scFv, His-tagged) VH: EVQLVQSGAEVKKPGESLKISCKGSGYSFTSYWIGWVRQMPGKGLEWMGIIYPDDSDTRYSPSFQGQVTISADKSISTAYLQWSSLKASDTAMYYCARLGSSWTNDAFDIWGQGTLVTVSS VL: SYELTQPPSVSVSPGQTARITCSGDALPKQYAYWYQQKPGQAPVLVIYKDTERPSGIPERFSGSSSGTTVTLTISGVQAEDEADYYCQSVDSSGTYVVFGGGTKLTVL ~2 nM

State, in one line, measured EC50 (read off the curve) of scFv 473 (scFv, V domains shown, One-chain scFv, His-tagged) VH: EVQLVQSGAEVKKPGESLKISCKGSGYSFSSYWIGWVRQMPGKGLEWMGIIYPGDSDTRYSPSFQGQVTISADKSISTAYLQWSSLKASDTAMYYCARLGSSWTNDAFDIWGQGTLVTVSS VL: SYELTQPPSVSVSPGQTARITCSGHALPSQYAYWYQQKPGQAPVLVIYKDTERPSGIPERFSGSSSGTTVTLTISGVQAEDEADYYCQSVDSSGTSVIFGGGTKLTVL ~2 nM
